A set of compounds tested on Staphylococcus aureus, with measured MIC:
Please respond with the number in µg/mL and leave the unit unwritten.

These recorded examples may help you get a feel for the data.
Query :: Fill in reported MIC for this entry: CCCCCCCC(=O)OCC1C=C(C)C=CC(=O)C(C)CC(CC=O)C(OC2OC(C)C(OC3CC(C)(O)C(O)C(C)O3)C(N(C)C)C2OC(C)=O)C(C)C(O)CC(=O)OC1CC (stereo not drawn)
Result :: 1.56

Query :: Read the entry CCC1OC(=O)CC(O)C(C)C(OC2OC(C)C(OC3CC(C)(O)C(O)C(C)O3)C(N(C)C)C2O)C(CC=O)CC(C)C(=O)C=CC(C)=CC1COC(=O)n1ccnc1 (stereo not drawn) and write its reported MIC.
Result :: 6.25

***
Query :: Give reported MIC value for CCC1OC(=O)CC(O)C(C)C(OC2OC(C)C(OC3CC(C)(O)C(O)C(C)O3)C(N(C)C)C2OC(C)=O)C(CC=O)CC(C)C(=O)C=CC(C)=CC1COC(=O)Cc1ccccc1 (stereo not drawn)
Result :: 0.195
